- SYSTEM UNDER TEST: BCL-XL (Homo sapiens, UniProt Q07817)
- Construct: endogenous in cells; host or cells: MOLT-4
- Sequence (Q07817 whole entry): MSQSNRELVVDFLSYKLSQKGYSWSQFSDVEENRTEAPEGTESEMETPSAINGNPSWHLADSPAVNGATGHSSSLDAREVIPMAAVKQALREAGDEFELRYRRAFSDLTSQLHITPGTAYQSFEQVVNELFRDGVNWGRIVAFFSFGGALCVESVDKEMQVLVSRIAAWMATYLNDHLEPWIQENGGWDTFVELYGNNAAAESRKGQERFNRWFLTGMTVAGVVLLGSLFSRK
- EXPERIMENT DESCRIPTION: BCL-XL degradation assay, western blot in MOLT-4 cells, 16 h
- Format: cell-based
- STUDY CONDITIONS: western blot, MOLT-4 cells, 16 h; read-out: Bcl-xL WB in MOLT-4 degradation 16 h: Mean external-Abs DC50
REPORTED PROPERTY: DC50

COMPOUND: Cc1ncsc1-c1ccc([C@H](C)NC(=O)[C@@H]2C[C@@H](O)CN2C(=O)[C@@H](NC(=O)N2CCC(CN3CCC(CNC(=O)c4nc(N5CCc6cccc(C(=O)Nc7nc8ccccc8s7)c6C5)ccc4-c4cnn(CC5CCCCC5)c4C)CC3)CC2)C(C)(C)C)cc1 [I-144]
READING: 0.5 to 1 µM

COMPOUND: Cc1ncsc1-c1ccc([C@H](C)NC(=O)[C@@H]2C[C@@H](O)CN2C(=O)[C@@H](NC(=O)CCCC(=O)N2CCN(CCCC3(Cn4ncc(-c5ccc(N6CCc7cccc(C(=O)Nc8nc9ccccc9s8)c7C6)nc5C(=O)O)c4C)CCCCC3)CC2)C(C)(C)C)cc1 [I-130]
READING: 0.1 to 0.5 µM

COMPOUND: Cc1ncsc1-c1ccc(CNC(=O)[C@@H]2C[C@@H](O)CC2C(=O)[C@@H](NC(=O)C2(F)CC2)C(C)(C)C)c(OCCCCCCNC(=O)c2nc(N3CCc4cccc(C(=O)Nc5nc6ccccc6s5)c4C3)ccc2-c2cnn(CC3CCCCC3)c2C)c1 (stereo partly drawn) [I-158]
READING: 0.1 to 0.5 µM

COMPOUND: Cc1ncsc1-c1ccc([C@H](C)NC(=O)[C@@H]2C[C@@H](O)CN2C(=O)[C@@H](NC(=O)c2ccc(CCS(=O)(=O)NC(=O)c3nc(N4CCc5cccc(C(=O)Nc6nc7ccccc7s6)c5C4)ccc3-c3cnn(CC4CCCCC4)c3C)cc2)C(C)(C)C)cc1 [I-143]
READING: < 0.01 µM

COMPOUND: Cc1ncsc1-c1ccc(CNC(=O)[C@@H]2C[C@@H](O)CN2C(=O)[C@@H](NC(=O)C2(F)CC2)C(C)(C)C)c(OCCCC(=O)N(C)CCCc2cccc(F)c2OCCCc2sc(N3CCc4cccc(C(=O)Nc5nc6ccccc6s5)c4C3)nc2C(=O)O)c1 [I-12]
READING: 0.5 to 1 µM

COMPOUND: Cc1ncsc1-c1ccc([C@H](C)NC(=O)[C@@H]2C[C@@H](O)CN2C(=O)[C@@H](NC(=O)CCCCCCC(=O)N2CCN(CC3(C)CCC(c4ccc(Cl)cc4)=C(CN4CCN(c5ccc(C(=O)NS(=O)(=O)c6ccc(NCC78CC9CC(CC(O)(C9)C7)C8)c(S(=O)(=O)C(F)(F)F)c6)cc5)CC4)C3)CC2)C(C)(C)C)cc1 (stereo partly drawn) [I-398]
READING: > 1 µM

COMPOUND: Cc1ncsc1-c1ccc([C@H](C)NC(=O)[C@@H]2C[C@@H](O)CN2C(=O)[C@@H](NC(=O)CCCN(C)C(=O)CCCCCc2ccc(N3CCc4cccc(C(=O)Nc5nc6ccccc6s5)c4C3)nc2C(=O)O)C(C)(C)C)cc1 [I-36]
READING: > 1 µM

COMPOUND: Cc1ncsc1-c1ccc(CNC(=O)[C@@H]2C[C@@H](O)CN2C(=O)[C@@H](NC(=O)C2(F)CC2)C(C)(C)C)c(OCCCCCCCCC(=O)N(C)CC#Cc2ccc(OCCCc3sc(N4CCc5cccc(C(=O)Nc6nc7ccccc7s6)c5C4)nc3C(=O)O)c(F)c2)c1 [I-386]
READING: 0.01 to 0.1 µM

COMPOUND: C#Cc1ccc(CNC(=O)[C@@H]2C[C@@H](O)CN2C(=O)[C@@H](NC(=O)C2(F)CC2)C(C)(C)C)c(OCC(=O)N2CCN(CC[C@H](CSc3ccccc3)Nc3ccc(S(=O)(=O)NC(=O)c4ccc(N5CCN(CC6=C(c7ccc(Cl)cc7)CCC(C)(C)C6)CC5)cc4)cc3S(=O)(=O)C(F)(F)F)CC2)c1 [I-92]
READING: 0.1 to 0.5 µM

COMPOUND: Cc1ncsc1-c1ccc([C@H](C)NC(=O)[C@@H]2C[C@@H](O)CN2C(=O)[C@@H](NC(=O)CCCC(=O)N(C)CC#Cc2ccc(OCCCc3sc(N4CCc5cccc(C(=O)Nc6nc7ccccc7s6)c5C4)nc3C(=O)O)c(F)c2)C(C)(C)C)cc1 [I-2]
READING: 0.1 to 0.5 µM

COMPOUND: C#Cc1ccc([C@H](CO)NC(=O)[C@@H]2C[C@@H](O)CN2C(=O)[C@@H](NC(=O)CCc2ccc(S(=O)(=O)NC(=O)c3nc(N4CCc5cccc(C(=O)Nc6nc7ccccc7s6)c5C4)ccc3-c3cnn(CC4CCCCC4)c3C)cc2)C(C)(C)C)cc1 [I-194]
READING: < 0.01 µM

COMPOUND: Cc1ncsc1-c1ccc(CNC(=O)[C@@H]2C[C@@H](O)CN2C(=O)[C@@H](c2cc(OCCCCCCCCC(=O)N(C)CC#Cc3ccc(OCCCc4ccc(N5CCc6cccc(C(=O)Nc7nc8ccccc8s7)c6C5)nc4C(=O)O)c(F)c3)no2)C(C)C)cc1 [I-171]
READING: 0.1 to 0.5 µM

COMPOUND: Cc1ncsc1-c1ccc(CNC(=O)[C@@H]2C[C@@H](O)CN2C(=O)[C@@H](NC(=O)CCCCCC(=O)N2CCN(CC[C@H](CSc3ccccc3)Nc3ccc(S(=O)(=O)NC(=O)c4ccc(N5CCN(CC6=C(c7ccc(Cl)cc7)CCC(C)(C)C6)CC5)cc4)cc3S(=O)(=O)C(F)(F)F)CC2)C(C)(C)C)cc1 [I-389]
READING: 0.01 to 0.1 µM

COMPOUND: Cc1ncsc1-c1ccc(CNC(=O)[C@@H]2C[C@@H](O)CN2C(=O)[C@@H](NC(=O)CCCC(=O)N(C)CCN(C)c2cc3c(c(C(=O)Nc4nc5ccccc5s4)c2)CN(c2ccc(-c4cnn(CC5CCCCC5)c4C)c(C(=O)O)n2)CC3)C(C)(C)C)cc1 [I-109]
READING: > 1 µM

COMPOUND: Cc1cc([C@@H](C(=O)N2C[C@H](O)C[C@H]2C(=O)NCc2ccc(-c3scnc3C)cc2OCCCCCCNC(=O)c2nc(N3CCc4cccc(C(=O)Nc5nc6ccccc6s5)c4C3)ccc2-c2cnn(CC3CCCCC3)c2C)C(C)C)on1 [I-198]
READING: 0.01 to 0.1 µM

====

Measured Dmax values are reported for all entries that follow.
- SYSTEM UNDER TEST: BCL-XL (Homo sapiens, UniProt Q07817)
- Construct: endogenous in cells; host or cells: MOLT-4
- EXPERIMENT DESCRIPTION: Bcl-xL ELISA degradation in MOLT-4 cells, 6 h
- Format: cell-based

COMPOUND: Cc1ncsc1-c1ccc([C@H](C)NC(=O)[C@@H]2C[C@@H](O)CN2C(=O)[C@@H](NC(=O)CCCCCS(=O)(=O)NC(=O)c2nc(N3CCc4cccc(C(=O)Nc5nc6ccccc6s5)c4C3)ccc2-c2ccnc(OC(C)C)c2C)C(C)(C)C)cc1 [I-315]
SYSTEM UNDER TEST: BCL-XL (Homo sapiens, UniProt Q07817)
Dmax: > 75%
--
COMPOUND: Cc1cc(N(C)c2ccc(-c3cnn(CC45CC6CC(CC(C6)C4)C5)c3C)c(C(=O)NS(=O)(=O)c3ccc(N4CCC(C(=O)N[C@H](C(=O)N5C[C@H](O)C[C@H]5C(=O)N[C@@H](C)c5ccc(-c6scnc6C)cc5)C(C)(C)C)CC4)cc3)n2)nnc1Nc1nc2ccccc2s1 [I-246]
SYSTEM UNDER TEST: BCL-XL (Homo sapiens, UniProt Q07817)
Dmax: > 75%

====

- SYSTEM UNDER TEST: BCL-XL (Homo sapiens)
- Construct: endogenous in cells; host or cells: MOLT-4
- EXPERIMENT DESCRIPTION: Bcl-xL ELISA degradation in MOLT-4 cells, 6 h
- Format: cell-based
Measured Dmax values are reported for all entries that follow.
REPORTED PROPERTY: Dmax

COMPOUND: Cc1ncsc1-c1ccc([C@H](C)NC(=O)[C@@H]2C[C@@H](O)CN2C(=O)[C@@H](NC(=O)CCCS(=O)(=O)NC(=O)c2nc(N3CCc4cccc(C(=O)Nc5nc6cccnc6s5)c4C3)ccc2-c2cnn(CC3CCCCC3)c2C)C(C)(C)C)cc1 [I-331]
READING: 50 to 75%
//
COMPOUND: Cc1cc(N(C)c2ccc(-c3cnn(CC4CCCC4)c3C)c(C(=O)NS(=O)(=O)CCCCCC(=O)N[C@H](C(=O)N3C[C@H](O)C[C@H]3C(=O)N[C@@H](C)c3ccc(-c4scnc4C)cc3)C(C)(C)C)n2)nnc1Nc1nc2ccccc2s1 [I-443]
READING: > 75%
//
COMPOUND: C#Cc1ccc([C@H](CO)NC(=O)[C@@H]2C[C@@H](O)CN2C(=O)[C@@H](NC(=O)C2CCN(c3ccc(S(=O)(=O)NC(=O)c4nc(N(C)c5cc(C)c(Nc6nc7ccccc7s6)nn5)ccc4-c4cnn(CC5(CC)CC6CC(C)CC(C6)C5)c4C)cc3)CC2)C(C)(C)C)cc1 (stereo partly shown) [I-245]
READING: > 75%
//
COMPOUND: Cc1cc(N(C)c2ccc(-c3cnn(CC45CC6CC(CC(C6)C4)C5)c3C)c(C(=O)NS(=O)(=O)CCCCCC(=O)N[C@H](C(=O)N3C[C@H](O)C[C@H]3C(=O)NCc3ccc4c(c3)c(C)nn4C)C(C)(C)C)n2)nnc1Nc1nc2ccccc2s1 [I-484]
READING: > 75%
